test system: human Factor XI mRNA; experiment: Dose-dependent inhibition and IC50 in HepG2 cells, microwalk gapmers, electroporation (Example 16); assay type: cell-based; conditions: electroporation, 375 nM
In the oligonucleotide strings, read from the 5' end, every base follows the letter of its sugar. An asterisk marks phosphorothioate; unmarked linkages are phosphodiester. Other units and linkages are bracketed, terminal groups are in braces. A string of capitals states the bases alone. e = 2'-O-(2-methoxyethyl) (MOE); [5mC] = 5-methylcytosine; d = 2'-deoxy (DNA)

[
  {
    "substance": "449708 (antisense eA*e[5mC]*eA*dG*dT*dT*dT*d[5mC]*dT*dG*dG*e[5mC]*eA*eG) [compound 449708]",
    "percent inhibition of Factor XI mRNA, %": 0
  },
  {
    "substance": "449710 (antisense e[5mC]*eA*e[5mC]*dA*dG*dT*dT*dT*d[5mC]*dT*dG*dG*d[5mC]*eA*eG*eG) [compound 449710]",
    "percent inhibition of Factor XI mRNA, %": 2
  },
  {
    "substance": "416850 (antisense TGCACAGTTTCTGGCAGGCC; 5-10-5 gapmer, wing sugar chemistry not given here, further chemistry not given here) [compound 416850]",
    "percent inhibition of Factor XI mRNA, %": 40
  },
  {
    "substance": "449707 (antisense e[5mC]*eA*e[5mC]*eA*dG*dT*dT*dT*d[5mC]*dT*dG*dG*e[5mC]*eA*eG*eG) [compound 449707]",
    "percent inhibition of Factor XI mRNA, %": 7
  },
  {
    "substance": "445531 (antisense eG*eG*e[5mC]*eA*eT*dT*dG*dG*dT*dG*d[5mC]*dA*d[5mC]*eA*eG*eT*eT*eT) [compound 445531]",
    "percent inhibition of Factor XI mRNA, %": 44
  },
  {
    "substance": "445522 (antisense eG*e[5mC]*eA*e[5mC]*eA*dG*dT*dT*dT*d[5mC]*dT*dG*dG*e[5mC]*eA*eG*eG*e[5mC]) [compound 445522]",
    "percent inhibition of Factor XI mRNA, %": 59
  }
]
